- Test system: Phakopsora pachyrhizi (F129L)
- protocol: Protective control of soybean rust on soybeans (PHAKPA P6)
- Type: in vivo
- statedConditions: protective P6, 4 ppm, soybean rust F129L
Hi there, I'd appreciate the recorded % PHAKPA (F129L) Disease level P6 at 4 ppm for every entry that follows.
Please reply with the bare figure in % and do not write the unit itself.

Which % PHAKPA (F129L) Disease level P6 at 4 ppm value is on record for CNC(=O)/C(=N/OC)c1cccc(C)c1CO/N=C(\C)c1ccc(OC(F)(F)F)cc1C(F)(F)F [compound 363] ?
25

Query (compound): CNC(=O)/C(=N/OC)c1cccc(C)c1CO/N=C(\C)c1c(F)cccc1F [compound 214] ; field requested: % PHAKPA (F129L) Disease level P6 at 4 ppm
28

Give its % PHAKPA (F129L) Disease level P6 at 4 ppm value. Item: CNC(=O)/C(=N/OC)c1cccc(C)c1CO/N=C(\C)c1ccc(Cl)cc1OC(F)(F)F [compound 375]
40

Any idea what its % PHAKPA (F129L) Disease level P6 at 4 ppm is? The compound is CNC(=O)/C(=N/OC)c1cccc(C)c1CO/N=C(\C)c1ccc(OC(F)(F)F)cc1F [compound 270]
0

What measured % PHAKPA (F129L) Disease level P6 at 4 ppm goes with CNC(=O)/C(=N/OC)c1cccc(OC)c1CO/N=C(\C)c1cccc(C(F)(F)F)c1 [compound 461] ?
52

Data request, read-out % PHAKPA (F129L) Disease level P6 at 4 ppm, for CO/N=C(/C(=O)OC)c1cccc(CF)c1CO/N=C(\C)c1cccc(C(F)(F)F)c1 [compound 25]
50

I'd like to know its % PHAKPA (F129L) Disease level P6 at 4 ppm. The compound in question is CC/C(=N\OCc1c(C)cccc1/C(=N\OC)C(=O)NC)c1ccccc1 [compound 294]
2

// query % PHAKPA (F129L) Disease level P6 at 4 ppm value for entry CNC(=O)/C(=N/OC)c1cccc(C)c1CO/N=C(\C)c1cc(C(F)(F)F)ccc1Cl [compound 190]
45

Which % PHAKPA (F129L) Disease level P6 at 4 ppm is listed for CCc1cccc(/C(=N\OC)C(=O)OC)c1CO/N=C(\C)c1cccc(C(F)(F)F)c1 [compound 61] ?
90

Report % PHAKPA (F129L) Disease level P6 at 4 ppm for CO/N=C(/C(=O)OC)c1cccc(C(F)F)c1CO/N=C(\C)c1cccc(C(F)(F)F)c1 [Ex. 24] please.
4

Reported % PHAKPA (F129L) Disease level P6 at 4 ppm for CNC(=O)/C(=N/OC)c1cccc(C)c1CO/N=C(/c1ccccc1)C(F)F [Ex. 73] : what is it?
19

Fill in the blank: the reported % PHAKPA (F129L) Disease level P6 at 4 ppm of CO/N=C(/C(=O)OC)c1cccc(C)c1CO/N=C(\C)c1c(C)cccc1C [compound 174] is ____.
80

Any idea what % PHAKPA (F129L) Disease level P6 at 4 ppm was measured for COC=C(C(=O)OC)c1cccc(C)c1CON=C(C)c1cccc(C(F)(F)F)c1 [Ex. 231] ?
2

So what does the record say about % PHAKPA (F129L) Disease level P6 at 4 ppm for CO/N=C(/C(=O)OC)c1cccc(C)c1CO/N=C(\C)c1ccc(-c2ccccc2)cc1C(F)(F)F [compound 414] ?
53

If you can, please state the reported % PHAKPA (F129L) Disease level P6 at 4 ppm value of CNC(=O)/C(=N/OC)c1cccc(C)c1CO/N=C(\C)c1c(Cl)cccc1Cl [compound 173] .
97

* * *

- Tested on: Phakopsora pachyrhizi (F129L)
- protocol: Protective control of soybean rust on soybeans (PHAKPA P2)
- Format: in vivo
- statedConditions: protective P2, 16 ppm, soybean rust F129L
endpointLabel: % PHAKPA (F129L) Disease level P2 at 16 ppm (%)
Kindly answer with a numeric value in %, unit omitted.

# query: % PHAKPA (F129L) Disease level P2 at 16 ppm of entry CO/N=C(/C(=O)OC)c1cccc(C)c1CO/N=C(\C)c1ccc(C#N)cc1C(F)(F)F [compound 423]
57

Look up % PHAKPA (F129L) Disease level P2 at 16 ppm for this molecule: CNC(=O)/C(=N/OC)c1cccc(C)c1CO/N=C(\C)c1cc(C#N)cc(C(F)(F)F)c1 [compound 46]
50

Which measured % PHAKPA (F129L) Disease level P2 at 16 ppm value corresponds to CNC(=O)/C(=N/OC)c1cccc(C)c1CO/N=C(\C)c1c(F)cc(Br)cc1OC(F)(F)F [compound 355] ?
7

Entry CNC(=O)/C(=N/OC)c1cccc(C)c1CO/N=C(\C)c1ccc(OC)cc1 [compound 164] has what % PHAKPA (F129L) Disease level P2 at 16 ppm?
0

Could you tell me which % PHAKPA (F129L) Disease level P2 at 16 ppm is on file for CNC(=O)/C(=N/OC)c1cccc(C)c1CO/N=C(\C)c1cccc(OC(F)F)c1 [compound 81] ?
0

Entry C#Cc1ccc(/C(C)=N/OCc2c(C)cccc2/C(=N\OC)C(=O)OC)cc1 [compound 172] has what % PHAKPA (F129L) Disease level P2 at 16 ppm?
1

Report % PHAKPA (F129L) Disease level P2 at 16 ppm for CNC(=O)/C(=N/OC)c1cccc(C)c1CO/N=C(\C)c1c(F)cc(F)cc1F [compound 170] please.
0

I would be grateful if you could share the reported % PHAKPA (F129L) Disease level P2 at 16 ppm for CNC(=O)/C(=N/OC)c1cccc(C)c1CO/N=C(\C)c1ccccc1C [compound 127] .
44

Given CNC(=O)/C(=N/OC)c1cccc(C)c1CO/N=C(\C)c1ccc(F)cc1OC(F)(F)F [compound 378] , state its recorded % PHAKPA (F129L) Disease level P2 at 16 ppm.
1

I would be grateful if you could share the reported % PHAKPA (F129L) Disease level P2 at 16 ppm for CNC(=O)/C(=N/OC)c1cccc(C)c1CO/N=C(\C)c1cc(Br)cc(Br)c1 [compound 142] .
5

Report % PHAKPA (F129L) Disease level P2 at 16 ppm for CNC(=O)/C(=N/OC)c1cccc(C)c1CO/N=C(\C)c1ccc(Cl)cc1OC(F)(F)F [compound 375] please.
8

// lookup % PHAKPA (F129L) Disease level P2 at 16 ppm for CNC(=O)/C(=N/OC)c1cccc(C)c1CO/N=C(\C)c1ccc(Cl)c(Cl)c1 [Ex. 41]
9

Entry under review: CNC(=O)/C(=N/OC)c1cccc(C)c1CO/N=C(\C)c1ccccc1-c1ccccc1 [compound 124] . Reported % PHAKPA (F129L) Disease level P2 at 16 ppm?
87

Using the record for C=Cc1cc(/C(C)=N/OCc2c(C)cccc2/C(=N\OC)C(=O)OC)cc(C(F)(F)F)c1 [compound 147] , report its % PHAKPA (F129L) Disease level P2 at 16 ppm.
18

Which measured % PHAKPA (F129L) Disease level P2 at 16 ppm value corresponds to CO/N=C(/C(=O)OC)c1cccc(C)c1CO/N=C(\C)c1ccc(Br)cc1C(F)(F)F [compound 257] ?
35

Give its % PHAKPA (F129L) Disease level P2 at 16 ppm value. Item: CO/N=C(/C(=O)OC)c1cccc(C)c1CO/N=C(\C)c1cc(Cl)ccc1C(F)(F)F [compound 251]
80

% PHAKPA (F129L) Disease level P2 at 16 ppm for CO/N=C(/C(=O)OC)c1cccc(C)c1CO/N=C(\C)c1cc(C(F)(F)F)ccc1F [compound 198] ?
1

Using the record for CO/N=C(/C(=O)OC)c1cccc(C)c1CO/N=C(\C)c1ccc(Cl)c(C(F)(F)F)c1 [compound 59] , report its % PHAKPA (F129L) Disease level P2 at 16 ppm.
20

Suppose we examine the molecule CNC(=O)/C(=N/OC)c1cccc(CF)c1CO/N=C(\C)c1cccc(C(F)(F)F)c1 [compound 26] ; what % PHAKPA (F129L) Disease level P2 at 16 ppm value has been reported?
0

Need % PHAKPA (F129L) Disease level P2 at 16 ppm, item CNC(=O)/C(=N/OC)c1cccc(C)c1CO/N=C(\C)c1cccc(F)c1OC(F)(F)F [compound 354]
2

Using the record for CNC(=O)/C(=N/OC)c1cccc(C)c1CO/N=C(\C)c1cccc(-c2noc(C(F)(F)F)n2)c1 [compound 67] , report its % PHAKPA (F129L) Disease level P2 at 16 ppm.
2

So what does the record say about % PHAKPA (F129L) Disease level P2 at 16 ppm for CNC(=O)/C(=N/OC)c1cccc(C)c1CO/N=C(\C)c1cccc(OC/C(C)=N/OC)c1 [compound 226] ?
3

Query (molecule): COC=C(C(=O)OC)c1cccc(C)c1CON=C(C)c1ccccc1OC(F)(F)F [compound 462] ; field requested: % PHAKPA (F129L) Disease level P2 at 16 ppm
6

Could you tell me which % PHAKPA (F129L) Disease level P2 at 16 ppm is on file for CNC(=O)/C(=N/OC)c1cccc(C)c1CO/N=C(/c1ccccc1)C(F)(F)F [compound 458] ?
57

May I ask what % PHAKPA (F129L) Disease level P2 at 16 ppm has been recorded for CO/C=C(/C(=O)OC)c1cccc(C)c1CO/N=C(\C)c1ccc(-c2ccccc2)cc1OC(F)(F)F [compound 433] ?
67
